# Test system: Enterococcus faecalis
# assay.summary: Antibacterial activity against Enterococcus faecalis ATCC 35550
# Format: functional
endpoint: MIC (µg/mL)

>>> df
                           structure_smiles  units  value_observed
0  COc1ccc(C(=O)/C=C/C(=O)N2CCN(c3ccc(N4C[C@H](CNC(C)=O)OC4=O)cc3F)CC2)cc1  µg/mL             0.5
1  CC(=O)/C=C/C(=O)N1CCN(c2ccc(N3C[C@H](CNC(C)=O)OC3=O)cc2F)CC1  µg/mL               1
2  CC(=O)NC[C@H]1CN(c2ccc(N3CCN(C(=O)/C=C/C(=O)c4cccc5ccccc45)CC3)c(F)c2)C(=O)O1  µg/mL             0.5
3  CC(=O)NC[C@H]1CN(c2ccc(N3CCN(C(=O)/C=C/C(=O)c4ccc(Br)cc4)CC3)c(F)c2)C(=O)O1  µg/mL               2

###

Quick reference for MIC among some compounds
# Tested on: Staphylococcus aureus
# assay.summary: Antibacterial activity against Staphylococcus aureus ATCC 9144
# Type: functional
endpoint: MIC (µg/mL)

>>> print(df.to_string())
                           structure_smiles  qualifier_operator  value_observed
0  COc1ccc(C(=O)/C=C/C(=O)N2CCN(c3ccc(N4C[C@H](C/N=C(/C)S)OC4=O)cc3F)CC2)cc1                   ≤            0.12
1  CC(=O)NC[C@H]1CN(c2ccc(N3CCN(C(=O)/C=C/C(=O)c4ccccc4)CC3)c(F)c2)C(=O)O1                   ≤            0.12
2  CC(=O)NC[C@H]1CN(c2ccc(N3CCN(C(=O)/C=C/c4ccccc4)CC3)c(F)c2)C(=O)O1                   =               2
3  CC(=O)NC[C@H]1CN(c2ccc(N3CCN(C(=O)/C=C/C(=O)c4ccc(Br)cc4)CC3)c(F)c2)C(=O)O1                   =               4
4  CC(=O)/C=C/C(=O)N1CCN(c2ccc(N3C[C@H](CNC(C)=O)OC3=O)cc2F)CC1                   =               1
5  CC(=O)NC[C@H]1CN(c2ccc(N3CCN(C(=O)/C=C/C(=O)c4cccc5ccccc45)CC3)c(F)c2)C(=O)O1                   =               4
6  CC(=O)NC[C@H]1CN(c2ccc(N3CCN(C(=O)/C=C/C(=O)c4ccc(NC(C)=O)cc4)CC3)c(F)c2)C(=O)O1                   ≤            0.12
7  COc1ccc(C(=O)/C=C/C(=O)N2CCN(c3ccc(N4C[C@H](CNC(C)=O)OC4=O)cc3F)CC2)cc1                   =             0.5
8  CC(=O)NC[C@H]1CN(c2ccc(N3CCN(C(=O)CO)CC3)c(F)c2)C(=O)O1                   =               2

###

Quick reference for MIC among some compounds
# System: Streptococcus pyogenes
# assay.summary: Antibacterial activity against Streptococcus pyogenes ATCC 14289
# Type: functional
endpoint: MIC (µg/mL)

                           structure_smiles       system_under_test  endpoint  units  qualifier_operator  value_observed
0  CC(=O)NC[C@H]1CN(c2ccc(N3CCN(C(=O)/C=C/C(=O)c4ccccc4)CC3)c(F)c2)C(=O)O1  Streptococcus pyogenes       MIC  µg/mL                   =            0.25
1  CC(=O)NC[C@H]1CN(c2ccc(N3CCN(C(=O)/C=C/C(=O)c4cccc5ccccc45)CC3)c(F)c2)C(=O)O1  Streptococcus pyogenes       MIC  µg/mL                   =             0.5
2  COc1ccc(C(=O)/C=C/C(=O)N2CCN(c3ccc(N4C[C@H](CNC(C)=O)OC4=O)cc3F)CC2)cc1  Streptococcus pyogenes       MIC  µg/mL                   ≤            0.12
3  COc1ccc(C(=O)/C=C/C(=O)N2CCN(c3ccc(N4C[C@H](C/N=C(/C)S)OC4=O)cc3F)CC2)cc1  Streptococcus pyogenes       MIC  µg/mL                   =            0.25
4  CC(=O)NC[C@H]1CN(c2ccc(N3CCN(C(=O)/C=C/C(=O)c4ccc(NC(C)=O)cc4)CC3)c(F)c2)C(=O)O1  Streptococcus pyogenes       MIC  µg/mL                   ≤            0.12
5  CC(=O)NC[C@H]1CN(c2ccc(N3CCN(C(=O)CO)CC3)c(F)c2)C(=O)O1  Streptococcus pyogenes       MIC  µg/mL                   =             0.5
6  CC(=O)NC[C@H]1CN(c2ccc(N3CCOCC3)c(F)c2)C(=O)O1  Streptococcus pyogenes       MIC  µg/mL                   =            0.25
7  CC(=O)NC[C@H]1CN(c2ccc(N3CCN(C(=O)/C=C/c4ccccc4)CC3)c(F)c2)C(=O)O1  Streptococcus pyogenes       MIC  µg/mL                   =               1

###

Quick reference for MIC among some molecules
# System: Staphylococcus epidermidis
# assay.summary: Antibacterial activity against Staphylococcus epidermidis ATCC 155
# Type: functional
endpoint: MIC (µg/mL)

>>> df
                                   molecule  endpoint  value_observed
0  COc1ccc(C(=O)/C=C/C(=O)N2CCN(c3ccc(N4C[C@H](C/N=C(/C)S)OC4=O)cc3F)CC2)cc1       MIC            0.12
1  CC(=O)NC[C@H]1CN(c2ccc(N3CCN(C(=O)/C=C/C(=O)c4ccccc4)CC3)c(F)c2)C(=O)O1       MIC            0.12
2  CC(=O)NC[C@H]1CN(c2ccc(N3CCN(C(=O)/C=C/C(=O)c4ccc(Br)cc4)CC3)c(F)c2)C(=O)O1       MIC            0.25
3  CC(=O)NC[C@H]1CN(c2ccc(N3CCOCC3)c(F)c2)C(=O)O1 [LINEZOLID]       MIC               1

###

# Tested on: Enterococcus faecalis
# assay.summary: Antibacterial activity against Enterococcus faecalis ATCC 35550
# Type: functional
endpoint: MIC (µg/mL)

>>> print(df.to_string())
                                   compound  endpoint  units  qualifier_operator  value_observed
0  CC(=O)NC[C@H]1CN(c2ccc(N3CCN(C(=O)/C=C/c4ccccc4)CC3)c(F)c2)C(=O)O1       MIC  µg/mL                   =               1
1  CC(=O)NC[C@H]1CN(c2ccc(N3CCN(C(=O)CO)CC3)c(F)c2)C(=O)O1 [EPEREZOLID]       MIC  µg/mL                   =               2
2  CC(=O)NC[C@H]1CN(c2ccc(N3CCN(C(=O)/C=C/C(=O)c4ccc(NC(C)=O)cc4)CC3)c(F)c2)C(=O)O1       MIC  µg/mL                   =            0.25
3  CC(=O)NC[C@H]1CN(c2ccc(N3CCN(C(=O)/C=C/C(=O)c4ccccc4)CC3)c(F)c2)C(=O)O1       MIC  µg/mL                   =             0.5
4  CC(=O)NC[C@H]1CN(c2ccc(N3CCN(C(=O)/C=C/C(=O)[O-])CC3)c(F)c2)C(=O)O1.[Na+]       MIC  µg/mL                   >              16
5  COc1ccc(C(=O)/C=C/C(=O)N2CCN(c3ccc(N4C[C@H](C/N=C(/C)S)OC4=O)cc3F)CC2)cc1       MIC  µg/mL                   =            0.25

###

Quick reference for MIC among some compounds
# Tested on: Staphylococcus aureus
# assay.summary: Antibacterial activity against Staphylococcus aureus ATCC 29213
# Type: functional
endpoint: MIC (µg/mL)

                           structure_smiles  qualifier_operator  value_observed
0  CC(=O)NC[C@H]1CN(c2ccc(N3CCN(C(=O)/C=C/C(=O)c4ccc(NC(C)=O)cc4)CC3)c(F)c2)C(=O)O1                   ≤            0.12
1  CC(=O)NC[C@H]1CN(c2ccc(N3CCN(C(=O)/C=C/c4ccccc4)CC3)c(F)c2)C(=O)O1                   =               2
2  CC(=O)NC[C@H]1CN(c2ccc(N3CCN(C(=O)CO)CC3)c(F)c2)C(=O)O1                   =               2
3  CC(=O)NC[C@H]1CN(c2ccc(N3CCN(C(=O)/C=C/C(=O)c4cccc5ccccc45)CC3)c(F)c2)C(=O)O1                   =               2
4  CC(=O)NC[C@H]1CN(c2ccc(N3CCN(C(=O)/C=C/C(=O)c4ccc(Br)cc4)CC3)c(F)c2)C(=O)O1                   =               4
5  COc1ccc(C(=O)/C=C/C(=O)N2CCN(c3ccc(N4C[C@H](C/N=C(/C)S)OC4=O)cc3F)CC2)cc1                   ≤            0.12
6  CC(=O)NC[C@H]1CN(c2ccc(N3CCN(C(=O)/C=C/C(=O)c4ccccc4)CC3)c(F)c2)C(=O)O1                   =            0.25
7  COc1ccc(C(=O)/C=C/C(=O)N2CCN(c3ccc(N4C[C@H](CNC(C)=O)OC4=O)cc3F)CC2)cc1                   =            0.25
